experiment: Human HepG2 cell viability assay in 384 well format; assay type: toxicity, cell-based; parameters: dose 125 nL, time 70.5 hour; concentration not given beside the values; settings: HepG2 cells, read-out: Inhibition
cytotoxicity at 70.5 h listing for selected compounds.
Write the answer as a number in %, unit excluded.

IN: For the compound CCc1cc(C(=O)N2CCC(Nc3ccc(C)nn3)CC2)sc1C , what cytotoxicity at 70.5 h is on record?
OUT: -2.56

IN: For the compound Cc1cc(OCC(O)c2nc3c([nH]2)CC(C)(C)CNC3=O)ccc1Cl (centres undefined) , what cytotoxicity at 70.5 h is on record?
OUT: -12.4

IN: For the compound O=C1N(c2cccnc2)CCC12CCCN(Cc1cccnc1)C2 (centres undefined) , what cytotoxicity at 70.5 h is on record?
OUT: -4.25

IN: For the compound CCc1n[nH]c(C2CN(C(=O)c3cc4c(s3)CCC4)CCO2)n1 (centres undefined) , what cytotoxicity at 70.5 h is on record?
OUT: -4.28

IN: For the compound Cc1ccc(Cl)c(NC(=O)c2cccc(CN3CC[C@H](O)C3)c2)c1 , what cytotoxicity at 70.5 h is on record?
OUT: -5.5

IN: For the compound CCn1nc2c(cc1=O)CN(CC1CCCCO1)CC2 (centres undefined) , what cytotoxicity at 70.5 h is on record?
OUT: 11.3

IN: For the compound CCN(Cc1nc2c(cnn2C)c(=O)[nH]1)c1ccccc1C , what cytotoxicity at 70.5 h is on record?
OUT: -11.2

IN: For the compound C[C@@H]1CN(CC(C)(C)N2CCCCC2)C[C@@]1(O)C1CC1 , what cytotoxicity at 70.5 h is on record?
OUT: -1.88
